# System: UACC-257 melanoma
# assay-overview: NCI-60 one-dose screen, 48 h (100 = growth as untreated, 0 = no growth, -100 = all killed)
# settings: 10 µM unless noted
About 83,000 compounds went through this panel and 20% of them were active in at least one assay; those are over-represented in the sample as a whole.
measurement-name: growth (%)
Answer in %, number only, no unit symbol.

Example cases with answers are listed next.
| compound | growth [%] |
| --- | --- |
| CC(=O)OCC(=O)[C@@]1(O)[C@H](C)C[C@H]2[C@@H]3C=C(C)C4=Cc5c(cnn5-c5ccc(F)cc5)C[C@]4(C)[C@H]3[C@@H](O)C[C@@]21C | 49.8 |
| CNCCCNCCCCNCCCN1C(=O)c2ccc3c4c(ccc(c24)C1=O)C(=O)N(CCCNCc1ccccc1OC)C3=O | 29.2 |
| CC1(C)C(O)NC(Cl)=C(C#N)C1(C#N)C#N (stereo not drawn) | 109 |

growth reported for this compound `CCOC(=O)c1c2c(cn1Cc1ccccc1)-c1oncc1CC2` : 112

In plain terms, `CCc1c(C)c2ccc(OCC(=O)N=Nc3c(O)[nH]c4ccccc34)c(C)c2oc1=O` has a documented growth of 28.2

Noted for `Nc1ccc(N=Nc2ccccc2)c2cc(S(=O)(=O)O)ccc12` : its growth reads 97

Noted for COC1NC(Cl)=C(C#N)C(C#N)(C#N)C1(C)C (stereo not drawn) : its growth reads 102

Memo: `COc1cccc(NC(=O)NCCNc2nccc(-c3c(-c4ccc(F)cc4)nc4sccn34)n2)c1` , reported growth: 119

GET /value?item= `COc1ccc(/C(=C(\c2ccccc2)[N+](=O)[O-])c2ccc(OCCN3CCCC3)cc2)cc1` &field=growth returns -26.1

get_value(item= `Cn1c2c(cc(S(=O)(=O)c3ccccc3)c1=O)CCc1c-2cnn1-c1ccc(Cl)cc1` , readout=growth) returns 11.7

For record `CC(C)OC(=O)[C@H](C)N[P@@](=O)(OC[C@@]1(C)O[C@@H](n2cc(F)c(N)nc2=O)C[C@@H]1O[P@](=O)(N[C@@H](C)C(=O)OC(C)C)Oc1ccccc1)Oc1ccccc1` the listed growth is 92.6

According to the records, this compound C=CC1CN2CCC1CC2C(O)c1ccnc2ccc(OC)cc12 (stereo not drawn) displays growth of 106

What the record says about `CC(=O)N1CCN(CCNC(=O)n2cc(-c3ccncc3)c(-c3ccc(O)c(Cl)c3)n2)CC1` : growth is 103

Form: compound = `COc1ccc2sc(-n3nc4nc5n(c(=O)c4c3N)-c3ccccc3Sc3ccccc3-5)nc2c1` ; growth = 89.6

Measured growth of COc1ccc(C2CC(=O)c3c(O)cc(OC4OC(COC5OC(C)C(O)C(O)C5O)C(O)C(O)C4O)cc3O2)cc1O (stereo not drawn) : 95.5

The recorded growth for COC(=O)C(C)[C@H]1CC[C@@H]2[C@]1(C)CC=C1[C@]23C=C[C@]2(C[C@@H](OC(C)=O)CC[C@]12C)C(C(=O)OC)C3C(=O)OC (stereo partly drawn) is 97.5

Kindly note the recorded growth for `COc1cc(-c2c3c(cn2CCN2CCCCC2)-c2oncc2CC3)cc(OC)c1OC` , which is 109

// recorded growth for `N#CCCCCCCCCCCC#N` : 87.7

----------
# growth per record follows
# Tested on: HCT-15 colon
# assay-overview: NCI-60 one-dose screen, 48 h (100 = growth as untreated, 0 = no growth, -100 = all killed)
# settings: 10 µM unless noted
About 83,000 compounds went through this panel and 20% of them were active in at least one assay; those are over-represented in the sample as a whole.
Reply numerically in %, unit not repeated.

| molecule | target-of-assay | growth (%) |
| --- | --- | --- |
| NNC(=S)N1N=C(c2cc3ccccc3o2)CC1c1c[nH]c2ccccc12 (configuration not stated) | HCT-15 colon | 30.4 |
| C/C=C(/C)C(=O)OC1C=C(CO)C(=O)C(OC(=O)C(C)(O)C(C)Cl)C1C(C)C (configuration not stated) | HCT-15 colon | -20.7 |
| CC(=O)N1CCN(CCNC(=O)n2cc(-c3ccncc3)c(-c3cc(O)cc(Cl)c3)n2)CC1 | HCT-15 colon | 51.1 |
| O=c1[nH]c2cc(O)ccc2n2cc3c(F)cccc3c12 | HCT-15 colon | 38.7 |
| CCCCCCN(CCCCCC)CCC(=O)Nc1ccc(S(=O)(=O)c2ccc(NC(=O)CCN(CCCCCC)CCCCCC)cc2)cc1 | HCT-15 colon | 72.9 |
| CCCCCSc1ccc2nc(NC(=O)OCC)sc2c1 | HCT-15 colon | 25.2 |
| CCN(CC)CCNc1ncnc2c1cnn2-c1ccc(Cl)cc1 | HCT-15 colon | 34.8 |
| CCCCCCCCCC[N+](C)(C)C | HCT-15 colon | 39.3 |
| N#Cc1c(N)nc(Nc2nc3ccccc3[nH]2)nc1-c1ccc(Cl)cc1 | HCT-15 colon | 109 |
| COc1cc([C@@H]2c3cc4c(cc3[C@H](O)[C@H]3COC[C@@H]23)OCO4)cc(OC)c1OC | HCT-15 colon | 59.1 |

Here `Nc1ncn([C@@H]2O[C@H](CO)[C@@H](O)C2(F)F)c(=O)n1` was tested on HCT-15 colon, and its growth came to 52.2

----------
# Test system: T-47D breast
# assay-overview: NCI-60 one-dose screen, 48 h (100 = growth as untreated, 0 = no growth, -100 = all killed)
# settings: 10 µM unless noted
The panel holds about 83,000 compounds, 20% with a hit somewhere; the sample as a whole holds those more often.
measurement-name: growth (%)
Reply numerically in %, unit not repeated.

// worked examples, growth included
| compound | target-of-assay | units-symbol | growth |
| --- | --- | --- | --- |
| Cc1ccc([C@@H]2C[C@H](O)Cc3ccccc3N2)s1 | T-47D breast | % | 99.1 |
| O=[N+]([O-])c1ccc(-c2ncc(-c3ccc(O)cc3O)[nH]2)cc1 | T-47D breast | % | 102 |
| CCOC(=O)c1sc(NS(=O)(=O)c2ccccc2)nc1C | T-47D breast | % | 111 |
| COC(=O)c1cc(=O)nc(N/N=C/c2ccccc2O)s1 | T-47D breast | % | 73.1 |

`CC1(C)NC(=S)NC1=O` on T-47D breast gives growth = 91.6

Response field growth (T-47D breast) for item `CCN(CCO)CCNc1ccc(C)c2sc3cc(OC)ccc3c(=O)c12` : 90.1

Measured growth (T-47D breast), entry CC([C@H]1CCC2C3CCC4C[C@@H](N)CC[C@]4(C)C3CC[C@@]21C)N(C)C (stereo partly drawn) : 55.9

Entry `COc1cc2ncnc(-n3ncc4cc(NC(=O)Nc5ccccc5)ccc43)c2cc1OC` under T-47D breast had growth of -7.28

`Cc1c(CN(C)C)cc(C(C)C)cc1C(C)C` on T-47D breast gives growth = 131

Measured growth for this entry `O=C(/C=C/c1c[nH]c2ccccc12)c1cc2ccccc2o1` on T-47D breast: 82.8

Measured on T-47D breast, `CCCC[N+](C)(N)CCCC` has a documented growth of 87.9

Here `COc1cc(N)c2nccc(C)c2c1OC` was tested on T-47D breast, and its growth came to 108

Field growth (system: T-47D breast) for entry `CCCCCCCCCCCCCCCCCC1=NCCN1CCNC(C)=O` = 85.8

----------
# System: A549/ATCC NSCLC
# assay-overview: NCI-60 one-dose screen, 48 h
# settings: 10 µM unless noted
This is part of a sample that, as a whole, favours compounds with a hit. Of some 83,000 tested, about 20% had one in any assay. Active and inactive are the calls of the source. How the source made its calls: active means growth percent below 10; inactive means the rest.
API: response.call in 1.0 (active), 0.0 (inactive)

| compound | assigned-class |
| --- | --- |
| N#Cc1c2cccnc2c2nnc3cc(Cl)c(Cl)cc3n12 | 0.0 |
| Cc1ccc2c(c1)C(=O)CCS2 | 0.0 |
| O=C1C(Cl)=C(SC2=NCCN2)C(=O)c2ccccc21 | 0.0 |
| O=S(=O)(O)CCI | 0.0 |
| C/C=C(/C)C(=O)OC1C=C(CO)C(=O)C(OC(=O)C2(C)OC2C)C1C(C)C (stereo unspecified) | 1.0 |

Enquiry: Please state the recorded outcome for this compound: `COc1cc(OC)c2c(=O)cc(-c3ccccc3)oc2c1`
Return: 0.0

Enquiry: Entry CC(C)(C)C(=O)OCOP(=O)(OCOC(=O)C(C)(C)C)C1CC(O)N(O)C1=O (stereo unspecified) : call = ?
Return: 0.0

Enquiry: Give the logged outcome of this assay for the following compound: `COC(=O)c1ccc2[nH]c(O)c(C(=Nc3ccc(N(C)C(=O)CN4CCN(C)CC4)cc3)c3cccc(OC)c3)c2c1`
Return: 1.0

Enquiry: I'd appreciate the recorded outcome for `CC[C@H](Nc1ncnc2nc[nH]c12)c1nc2cccc(NCc3ccc(C(=O)NO)o3)c2c(=O)n1-c1ccccc1` from this test.
Return: 0.0

Enquiry: Dear colleague, could you share the recorded outcome for `CCN(CC)CCCNc1c2ccc(Cl)cc2nc2ccc(OC)cc12` when you have a moment?
Return: 1.0

Enquiry: Each compound tested received a call. Report the one for O=C1CSC(c2ccccc2Cl)N1c1nnc(-c2ccncc2)o1 (stereo unspecified) .
Return: 0.0
